- ASSAY_NOTES: Acute toxicity (LD50) in mice
- CONDITION_SET: male, Albino Swiss CD-1, mouse, in vivo, iv
PARAMETER: LD50 at 24 h (mg/kg)
// units = mg/kg; emit number, no label

Item: C[C@]12CC[C@H](CCCC(=O)O)C[C@@H]1[C@@H](O)C[C@@H]1[C@@H]2CC[C@]2(C)C(=O)CC[C@@H]12 [Compound 5] | LD50 at 24 h: 300

---

- ASSAY_NOTES: Acute toxicity (LD50) in mice
- CONDITION_SET: male, Albino Swiss CD-1, mouse, in vivo, po
# LD50 at 24 h annotations

Reference set (2 entries):
{"columns": ["COMPOUND", "LD50 at 24 h"],
 "data": [
  ["C[C@]12CC/C(=N\\OCC(=O)O)C[C@@H]1[C@H](O)C[C@@H]1[C@@H]2CC[C@]2(C)C(=O)CC[C@@H]12 [PST3093, reference compound]", "> 200 mg/kg"],
  ["C[C@]12CC[C@H](CCCC(=O)O)C[C@@H]1[C@@H](O)C[C@@H]1[C@@H]2CC[C@]2(C)C(=O)CC[C@@H]12", "> 800 mg/kg"]
]}

Let's switch to this compound now.
Item: C[C@]12CCC(=NOCCN)C[C@@H]1C(=O)C[C@@H]1[C@@H]2CC[C@]2(C)C(=O)CC[C@@H]12 (mixture of isomers) | LD50 at 24 h: 200 mg/kg

These entries and their values trace back to paper PMC9150102.
